As shown below, each of these sequences has a reported binding signal value.
# measured.target: MaxL homodimer (Homo sapiens, UniProt P61244 1-160)
# Sequence (P61244 whole entry): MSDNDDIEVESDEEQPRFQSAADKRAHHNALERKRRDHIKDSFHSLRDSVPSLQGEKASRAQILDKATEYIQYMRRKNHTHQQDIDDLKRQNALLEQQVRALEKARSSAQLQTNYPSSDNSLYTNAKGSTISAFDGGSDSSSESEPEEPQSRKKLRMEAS
# experiment.notes: universal protein-binding microarray (PBM); PBS-based mixture, 10 nM His-tagged protein dimer, 2% milk, 200 ng/uL BSA, 50 ng/uL salmon testes DNA, 0.02% TX-100; detection with Alexa 488 anti-His antibody;; high values mean tight binding;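 note: fluorescence intensity normalized to that of the highest-ranked 8-mer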
# particulars: protein: recombinant; tags: C-terminal His-tag (pET21a); chain copies: 2; dsDNA, one strand shown
In all, about 33,000 sequences were measured (“normalized occupancy”: median about 0.075, highest 2% from about 0.095 on). What follows is part of a selection rich in the highest values, with near analogues and random picks from the rest.
The figure you give is taken to be in normalized occupancy; do not add the unit.

Here is how some sequences turned out for binding signal.
AGGCGAGG	0.0752
CCAATTGG	0.0757
ACGGATGC	0.0722
AGGATGAC	0.0813
AAAAACCA	0.0806

Just so you know, measured binding signal for `GCACACGC` came out at 0.1

Just so you know, measured binding signal for `TCACTGCA` came out at 0.075

Just so you know, measured binding signal for `AAGGTGGC` came out at 0.0758

Just so you know, measured binding signal for `CTCTATTA` came out at 0.0807

Just so you know, measured binding signal for `TAGATTGA` came out at 0.0791

Just so you know, measured binding signal for `AAACTATT` came out at 0.0745

* * *

As shown below, each of these sequences has a reported binding signal value.
# measured.target: MaxL homodimer (Homo sapiens, UniProt P61244 1-160)
# experiment.notes: universal protein-binding microarray (PBM); PBS-based mixture, 10 nM His-tagged protein dimer, 2% milk, 200 ng/uL BSA, 50 ng/uL salmon testes DNA, 0.02% TX-100; detection with Alexa 488 anti-His antibody;; high values mean tight binding;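 note: fluorescence intensity normalized to that of the highest-ranked 8-mer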
# particulars: protein: recombinant; tags: C-terminal His-tag (pET21a); chain copies: 2; dsDNA, one strand shown
Over roughly 33,000 sequences, “normalized occupancy” has its median near 0.075; the highest 2% begin near 0.095. Only a selection was taken, and the highest values are over-represented in it overall.
The figure you give is taken to be in normalized occupancy; do not add the unit.

Here is how some sequences turned out for binding signal.
CATGCCAC	0.0989
ACCGTGAT	0.0871
ACACAGGC	0.0789

Just so you know, measured binding signal for `AGCATATA` came out at 0.0807

Just so you know, measured binding signal for `AGCGTGAC` came out at 0.101

Just so you know, measured binding signal for `GATATGGC` came out at 0.0846

Just so you know, measured binding signal for `ACATGATC` came out at 0.101

Just so you know, measured binding signal for `CCATGGAC` came out at 0.0837

Just so you know, measured binding signal for `GCATGGAC` came out at 0.0979

Just so you know, measured binding signal for `AGTGTGAC` came out at 0.089

Just so you know, measured binding signal for `AATATGGG` came out at 0.0882

Just so you know, measured binding signal for `CGATGCCC` came out at 0.0786

Just so you know, measured binding signal for `CATGCCAG` came out at 0.0874

Just so you know, measured binding signal for `TATGCCGA` came out at 0.0757
